Would you kindly list pIC50 for each of these molecules?
# assay_text: Antiproliferative activity against mouse B16/F10 cells after 48 hrs by MTT assay
# Type: functional, cell-based
# test_settings: B16-F10, 48 h
Give bare numbers, as −log10 of the molar value.

The following molecules have reported results that may help.
molecule	pIC50
COc1ccc(-c2csc(N3N=C(c4ccc(Br)cc4)CC3c3ccc4c(c3)OCCO4)n2)cc1 (configuration not stated)	5.95
COc1ccc(C2=NN(c3nc(-c4ccc(OC)cc4)cs3)C(c3ccc4c(c3)OCCO4)C2)cc1 (configuration not stated)	5.52
Brc1ccc(C2=NN(c3nc(-c4ccc(Br)cc4)cs3)C(c3ccc4c(c3)OCCO4)C2)cc1 (configuration not stated)	6.37
Cc1ccc(C2=NN(c3nc(-c4ccc(Br)cc4)cs3)C(c3ccc4c(c3)OCO4)C2)cc1 (configuration not stated)	5.86
Cc1ccc(C2=NN(c3nc(-c4ccc(Br)cc4)cs3)C(c3ccc4c(c3)OCCO4)C2)cc1 (configuration not stated)	5.77
COc1ccc(C2=NN(c3nc(-c4ccc(Br)cc4)cs3)C(c3ccc4c(c3)OCCO4)C2)cc1 (configuration not stated)	5.60

Now look at this one.
Recorded pIC50 of Clc1ccc(C2=NN(c3nc(-c4ccc(Br)cc4)cs3)C(c3ccc4c(c3)OCO4)C2)cc1 (configuration not stated) , please.
5.82

###

# assay_text: Antiproliferative activity against mouse B16/F10 cells after 48 hrs by MTT assay
# Format: functional, cell-based
# test_settings: B16-F10, 48 h
assay_readout: IC50 (nM)
Numbers only, in nM.

The following compounds have reported results that may help.
compound	IC50 / nM
COc1ccc(C2=NN(c3nc(-c4ccc(Br)cc4)cs3)C(c3ccc4c(c3)OCO4)C2)cc1 (centres undefined)	2540
COc1ccc(C2=NN(c3nc(-c4ccc(OC)cc4)cs3)C(c3ccc4c(c3)OCO4)C2)cc1 (centres undefined)	2670
C#Cc1cccc(Nc2ncnc3cc(OCCOC)c(OCCOC)cc23)c1	50
Brc1ccc(C2=NN(c3nc(-c4ccc(Br)cc4)cs3)C(c3ccc4c(c3)OCO4)C2)cc1 (centres undefined)	120

// each compound listed below needs its IC50
1. Fc1ccc(C2=NN(c3nc(-c4ccc(Br)cc4)cs3)C(c3ccc4c(c3)OCO4)C2)cc1 (centres undefined)
2. Clc1ccc(C2=NN(c3nc(-c4ccc(Br)cc4)cs3)C(c3ccc4c(c3)OCCO4)C2)cc1 (centres undefined)
3. Fc1ccc(C2=NN(c3nc(-c4ccc(Br)cc4)cs3)C(c3ccc4c(c3)OCCO4)C2)cc1 (centres undefined)
4. COc1ccc(-c2csc(N3N=C(c4ccc(F)cc4)CC3c3ccc4c(c3)OCO4)n2)cc1 (centres undefined)

3810
2150
4110
3980

Recorded IC50 of COc1ccc(-c2csc(N3N=C(c4ccc(F)cc4)CC3c3ccc4c(c3)OCCO4)n2)cc1 (centres undefined) , please.
4430

###

# assay_text: Antiproliferative activity against mouse B16/F10 cells after 48 hrs by MTT assay
# Assay type: functional, cell-based
# test_settings: B16-F10, 48 h
Cut-off 2000 nM on IC50: below means label 1, at or above means label 0.

molecule	group_label
COc1ccc(-c2csc(N3N=C(c4ccc(C)cc4)CC3c3ccc4c(c3)OCCO4)n2)cc1 (stereo not given)	label 0
COc1ccc(-c2csc(N3N=C(c4ccc(C)cc4)CC3c3ccc4c(c3)OCO4)n2)cc1 (stereo not given)	label 1
COc1ccc(-c2csc(N3N=C(c4ccc(Br)cc4)CC3c3ccc4c(c3)OCO4)n2)cc1 (stereo not given)	label 1
COc1ccc(-c2csc(N3N=C(c4ccc(Cl)cc4)CC3c3ccc4c(c3)OCO4)n2)cc1 (stereo not given)	label 0

Now for a further molecule.
Decide: IC50 of COc1ccc(-c2csc(N3N=C(c4ccc(Cl)cc4)CC3c3ccc4c(c3)OCCO4)n2)cc1 (stereo not given) strictly below 2000 nM?
label 0
